molecular target: human adrenergic-α2A receptor (Homo sapiens, UniProt P08913); construct: expressed in transfected cells; membrane preparation; experiment: Radioligand binding experiment for α2A-adrenoceptor ([3H]-raulwolscine competition, CHO cell membranes); settings: [3H]raulwolscine 1 nM, membranes of CHO cells transfected with human α2A receptor; read-out: pIC50 α2A (converted)
Sequence (P08913 whole entry): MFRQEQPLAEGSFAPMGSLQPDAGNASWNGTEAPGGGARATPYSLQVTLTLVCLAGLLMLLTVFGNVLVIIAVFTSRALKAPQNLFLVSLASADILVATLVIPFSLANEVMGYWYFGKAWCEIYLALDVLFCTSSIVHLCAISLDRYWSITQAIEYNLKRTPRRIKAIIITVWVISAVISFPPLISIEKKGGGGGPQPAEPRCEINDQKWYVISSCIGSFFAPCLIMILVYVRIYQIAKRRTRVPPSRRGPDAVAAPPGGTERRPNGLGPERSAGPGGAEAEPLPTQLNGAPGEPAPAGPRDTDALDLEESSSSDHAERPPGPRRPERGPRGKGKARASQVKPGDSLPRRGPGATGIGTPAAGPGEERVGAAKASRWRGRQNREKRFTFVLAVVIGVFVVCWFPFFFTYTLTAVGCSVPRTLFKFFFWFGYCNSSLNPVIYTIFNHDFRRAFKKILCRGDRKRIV
ASSAY ENDPOINT: IC50 (nM)
Report as a plain number; the unit nM is understood.

Below, each entry is followed by its recorded IC50 result.
MOLECULE	UNIT	NUMERIC RESULT
C/C(=C\c1ccccc1)CN1CCC(n2cnn(-c3ccc(CN4CCOCC4)cc3)c2=O)CC1	nM	63.1
CN1CCN(c2ccc(-n3cnn(CC4CCN(CCOc5ccccc5)CC4)c3=O)cc2)CC1	nM	158
O=c1n(-c2ccc(CN3CCOCC3)cc2)cnn1CCNCCOc1ccc(F)cc1	nM	2510
O=c1n(-c2ccc3c(c2)CCN(CC2CCCCC2)C3)cnn1CCNCCOc1ccccc1	nM	501
O=c1n(-c2ccc(CNCCc3ccccc3)cc2)cnn1CCNCCOc1ccccc1	nM	20

Recorded result, C/C(=C\c1ccccc1)CN1CCC(n2cnn(CCN(C)CCOc3ccccc3)c2=O)CC1 , IC50: 398

// field: IC50; key: O=c1n(-c2ccc(N3CCC(N4CCCC4)CC3)cc2)cnn1CCNCCOc1ccccc1 ; value = 100

Data point: C/C(=C\c1ccccc1)CN1CCC(Cn2ncn(-c3ccc(NCCN(C)C)cc3)c2=O)CC1 ; IC50 = 63.1

Entry O=c1n(-c2ccc(CNCCN3CCCCC3)cc2)cnn1CCNCCOc1ccccc1 ; IC50 = 15.8

Input COc1ccc(N2CCN(c3ccc(-n4cnn(C5CCN(CCOc6ccccc6)CC5)c4=O)cc3)CC2)cc1 . Output IC50: 1260

The reported value for O=c1n(-c2ccc(CN3CCC(O)CC3)cc2)cnn1CCNCCOc1ccccc1 in terms of IC50 is 50.1

Sample O=c1n(CCN2CCCCC2)cnn1CCNCCOc1ccccc1 ; IC50 observed: 158

GET /value?item= O=c1n(-c2ccc(NCc3ccc(F)cc3)cc2)cnn1CCNCCOc1ccccc1 &field=IC50 returns 251

get_value(item= O=c1n(CC2CCN(CCOc3ccccc3)CC2)cnn1CCN1CCOCC1 , readout=IC50) returns 398

Recorded result, O=c1n(-c2ccc(CN3CCC(O)CC3)cc2)cnn1CC1CCN(CCOc2ccccc2)CC1 , IC50: 79.4

The recorded IC50 for CCOC(=O)C1CCN(Cc2ccc(-n3cnn(CCNCCOc4ccccc4)c3=O)cc2)CC1 is 63.1

Value of IC50 reported for the molecule O=c1n(CCN2CCOCC2)cnn1CC1CCN(CCOc2ccccc2)CC1 is 251

* * *

target: human adrenergic-α2C receptor (Homo sapiens, UniProt P18825); construct: expressed in transfected cells; membrane preparation; experiment: Radioligand binding experiment for α2C-adrenoceptor ([3H]-raulwolscine competition, CHO cell membranes); conditions: [3H]raulwolscine 1 nM, membranes of CHO cells transfected with human α2C receptor; read-out: pIC50 α2C (converted)
# maps each entry to its IC50
Remember to put the unit after the number in your answer.

Before answering, review these 5 worked examples.
MOLECULE	STUDY TARGET	IC50
O=c1n(-c2ccc(CN3CCCC3)cc2)cnn1CCNCCOc1ccccc1 [compound 14]	human adrenergic-α2C receptor (Homo sapiens, UniProt P18825)	1 nM
O=c1n(CC2CCN(CCOc3ccccc3)CC2)cnn1CCN1CCN(Cc2cc3ccccc3[nH]2)CC1 [compound 128]	human adrenergic-α2C receptor (Homo sapiens, UniProt P18825)	12.6 nM
COc1ccc(N2CCN(c3ccc(-n4cnn(C5CCN(CCOc6ccccc6)CC5)c4=O)cc3)CC2)cc1 [compound 58]	human adrenergic-α2C receptor (Homo sapiens, UniProt P18825)	50.1 nM
CN(C)CCNc1ccc(-n2cnn(CC3CCN(CCOc4ccccc4)CC3)c2=O)cc1 [compound 38]	human adrenergic-α2C receptor (Homo sapiens, UniProt P18825)	1.58 nM
CS(=O)(=O)N1CCc2cc(-n3cnn(CCNCCOc4ccccc4)c3=O)ccc2C1 [compound 101]	human adrenergic-α2C receptor (Homo sapiens, UniProt P18825)	7.94 nM

// sample C/C(=C\c1ccccc1)CN1CCC(n2cnn(Cc3ccc(CN)cc3)c2=O)CC1 [compound 32] , its IC50 was 12.6 nM

Record C/C(=C\c1ccccc1)CN1CCC(n2cnn(CCN(C)CCOc3ccccc3)c2=O)CC1 [compound 30] . Reported IC50: 15.8 nM

Memo: COc1ccc(N2CCN(c3ccc(-n4cnn(CCN(C)CCOc5ccccc5)c4=O)cc3)CC2)cc1 [compound 9] , reported IC50: 794 nM

Entry O=c1n(-c2ccc(N3CCOCC3)cc2)cnn1CC1CCN(CCOc2ccccc2)CC1 [compound 72] ; IC50 = 7.94 nM

In plain terms, O=c1n(CC2CCN(CCOc3ccccc3)CC2)cnn1CCN1CCN(Cc2ccc3ncccc3c2)CC1 [compound 126] has a documented IC50 of 12.6 nM

* * *

biological target: human adrenergic-α2C receptor (Homo sapiens, UniProt P18825); construct: expressed in transfected cells; membrane preparation; test: Radioligand binding experiment for α2C-adrenoceptor ([3H]-raulwolscine competition, CHO cell membranes); conditions: [3H]raulwolscine 1 nM, membranes of CHO cells transfected with human α2C receptor; read-out: pIC50 α2C (converted)
ASSAY ENDPOINT: IC50
Answer format: value, then unit.

COMPOUND	STUDY TARGET	IC50
O=c1n(-c2ccc(CNCc3ccccc3)cc2)cnn1CCNCCOc1ccccc1	human adrenergic-α2C receptor (Homo sapiens, UniProt P18825)	5.01 nM

Reported IC50 for O=c1n(-c2ccc(CNCC3CCCO3)cc2)cnn1CCNCCOc1ccccc1 (stereo not shown) was 1.26 nM

// O=c1n(-c2ccc(CN3CCC(O)CC3)cc2)cnn1CCNCCOc1ccccc1 : IC50 value = 1.58 nM

Looking up O=c1n(CC2CCN(CCOc3ccccc3)CC2)cnn1CCN1CCN(Cc2c[nH]c3ccc(F)cc23)CC1 , I found its IC50 recorded as 2 nM

* * *

biological target: human adrenergic-α2A receptor (Homo sapiens); construct: expressed in transfected cells; membrane preparation; test: Radioligand binding experiment for α2A-adrenoceptor ([3H]-raulwolscine competition, CHO cell membranes); conditions: [3H]raulwolscine 1 nM, membranes of CHO cells transfected with human α2A receptor; read-out: pIC50 α2A (converted)
ASSAY ENDPOINT: IC50 (nM)
Your answer is read as nM, so omit the unit and give the number.

COMPOUND	STUDY TARGET	IC50 [nM]
O=c1n(-c2ccc(N3CCOCC3)cc2)cnn1CCNCCOc1ccccc1	human adrenergic-α2A receptor (Homo sapiens)	794
COc1ccc(N2CCN(c3ccc(-n4cnn(Cc5ccc(CN6CCOCC6)cc5)c4=O)cc3)CC2)cc1	human adrenergic-α2A receptor (Homo sapiens)	1580
CN(C)CCNc1ccc(-n2cnn(CCNCCOc3ccccc3)c2=O)cc1 [compound 86]	human adrenergic-α2A receptor (Homo sapiens)	39.8

Now take the following compound into account.
The reported value for CC(NCCOc1ccccc1)C(C)n1ncn(-c2ccc(N3CCN(c4ccc(O)cc4)CC3)cc2)c1=O (single isomer, unassigned) [compound 4] in terms of IC50 is 2510

* * *

Biological target: human adrenergic-α2C receptor (Homo sapiens, UniProt P18825)
Construct: expressed in transfected cells; membrane preparation
Sequence (P18825 1-462): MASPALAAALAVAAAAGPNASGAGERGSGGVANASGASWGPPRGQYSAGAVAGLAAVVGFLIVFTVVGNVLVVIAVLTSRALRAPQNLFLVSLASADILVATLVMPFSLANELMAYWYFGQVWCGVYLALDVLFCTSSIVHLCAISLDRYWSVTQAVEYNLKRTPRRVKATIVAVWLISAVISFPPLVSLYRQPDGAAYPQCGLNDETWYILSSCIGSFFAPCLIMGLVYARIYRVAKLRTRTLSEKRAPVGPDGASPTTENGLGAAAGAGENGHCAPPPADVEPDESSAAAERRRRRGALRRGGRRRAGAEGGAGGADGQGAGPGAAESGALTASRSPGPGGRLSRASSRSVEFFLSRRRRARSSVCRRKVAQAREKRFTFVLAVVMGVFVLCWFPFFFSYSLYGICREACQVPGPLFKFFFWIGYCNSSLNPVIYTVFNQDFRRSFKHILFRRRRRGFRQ
Test: Radioligand binding experiment for α2C-adrenoceptor ([3H]-raulwolscine competition, CHO cell membranes)
Conditions: [3H]raulwolscine 1 nM, membranes of CHO cells transfected with human α2C receptor; read-out: pIC50 α2C (converted)
ASSAY ENDPOINT: IC50 (nM)
// return numeric value only (unit: nM, not printed)

Example results:
STRUCTURE AS SMILES	ASSAY ENDPOINT	NUMERIC RESULT
O=c1n(-c2ccc(NCCN3CCCC3)cc2)cnn1CCNCCOc1ccccc1	IC50	2
C/C(=C\c1ccccc1)CN1CCC(n2ncn(-c3ccc(CN4CCOCC4)cc3)c2=O)CC1	IC50	25.1
O=c1n(-c2ccc(N3CCN(Cc4ccccc4)CC3)cc2)cnn1CC1CCN(CCOc2ccccc2)CC1	IC50	15.8

// below: IC50 requested for another compound
Sure, the documented IC50 for O=c1n(-c2ccc(NCc3ccc(F)cc3)cc2)cnn1CCNCCOc1ccccc1 is 2
